- targetUnderTest: human GIP receptor (human) (UniProt P48546)
- Sequence (looked up): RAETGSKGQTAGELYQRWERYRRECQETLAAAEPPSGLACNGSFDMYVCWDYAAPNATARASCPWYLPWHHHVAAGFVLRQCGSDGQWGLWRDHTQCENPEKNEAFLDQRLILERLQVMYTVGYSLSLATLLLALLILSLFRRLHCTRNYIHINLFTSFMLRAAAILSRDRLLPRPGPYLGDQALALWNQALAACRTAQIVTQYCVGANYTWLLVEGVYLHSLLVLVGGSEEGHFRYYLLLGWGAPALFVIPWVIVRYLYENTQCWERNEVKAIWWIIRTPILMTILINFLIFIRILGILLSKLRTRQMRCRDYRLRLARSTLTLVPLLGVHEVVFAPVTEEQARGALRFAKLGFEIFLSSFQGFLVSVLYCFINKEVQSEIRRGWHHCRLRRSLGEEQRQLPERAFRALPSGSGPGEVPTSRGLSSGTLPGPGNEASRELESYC
- protocol: cell-based or functional assay
measuredQuantity: cAMP Emax (1.0% HSA) (%)
Use % as the unit, but write only the number.

# input substance: Y-Aib-EGT-αMeF(2F)-TSD-4Pal-SI-αMeL-LD-Orn-K((2-[2-(2-Amino-ethoxy)-ethoxy]-acetyl)2-(εK)-CO-(CH2)12-CO2H)AQ-Aib-EFI-(D-Glu)-αMeY-LIEGGK((2-[2-(2-Amino-ethoxy)-ethoxy]-acetyl)2-(εK)-CO-(CH2)12-CO2H)-NH2 (peptide) ; wanted: its cAMP Emax (1.0% HSA)
86.2

Endpoint output: cAMP Emax (1.0% HSA) of Y-Aib-EGT-αMeF(2F)-TSD-4Pal-SI-αMeL-LD-Orn-K((εK)-(γ-Glu)-CO-(CH2)12-CO2H)AQ-Aib-EFI-(D-Glu)-αMeY-LIEGGK((εK)-(γ-Glu)-CO-(CH2)12-CO2H)-NH2 (peptide) . Value?
85.6

What value of cAMP Emax (1.0% HSA) has been recorded for this entry: Y-Aib-EGT-αMeF(2F)-TSD-4Pal-SI-αMeL-LD-Orn-K((2-[2-(2-Amino-ethoxy)-ethoxy]-acetyl)2-(γ-Glu)-CO-(CH2)12-CO2H)AQ-Aib-EFI-(D-Glu)-αMeY-LIEGGK((2-[2-(2-Amino-ethoxy)-ethoxy]-acetyl)2-(γ-Glu)-CO-(CH2)12-CO2H)SSG-Orn-PPPS-NH2 (peptide)
94.1

// data source = patent US20230265151A1
